# Test system: IPOMOEA SPP.
# assay.explanation: Postemergence herbicidal evaluation, IPOSS (Morningglory spp.)
# Format: in vivo
# assay.setup: Rate 0.250 kg/ha
Below, each entry is listed with its recorded IPOSS rating.
Could you respond with only the numeric value?

// below: answered molecules
Task: May I ask what IPOSS rating has been recorded for COC(=O)Cn1c(=O)n(C)c(=O)n(-c2cc(Oc3cc(Cl)cc(Cl)c3Cl)ccc2[N+](=O)[O-])c1=O ?
Result: 0.0

Task: I would be grateful if you could share the reported IPOSS rating for CC(C)OC(=O)Cn1c(=O)n(C)c(=O)n(-c2cc(Oc3ncc(C(F)(F)F)cc3Cl)ccc2Br)c1=O .
Result: 9.0

Task: Given the entry COC(=O)Cn1c(=O)n(C)c(=O)n(-c2cc(Oc3ccc(C#N)cc3)ccc2[N+](=O)[O-])c1=O , report its measured IPOSS rating.
Result: 0.0

Task: Would you mind telling me what IPOSS rating value was observed for COC(=O)Cn1c(=O)n(C)c(=O)n(-c2cc(Oc3ccc(C(F)(F)F)cc3Cl)ccc2Cl)c1=O ?
Result: 9.0

// next entry
Task: # lookup: IPOSS rating of COC(=O)Cn1c(=O)n(C)c(=O)n(-c2cc(Oc3ncc(C(F)(F)F)cc3Cl)ccc2Br)c1=O
Result: 9.0
